Tested on: BEAS-2B
Assay: Cytotoxicity against human BEAS-2B cells at 20 uM incubated for 48 hrs by MTT assay
Assay type: toxicity, cell-based
value-kind: Activity

Example entries and their recorded answers appear below.
compound-string	Activity
CN1CCN(c2ccc(-c3ccc4nc(-c5ccc(C(=O)Nc6c(F)cccc6F)cc5)[nH]c4c3)cc2)CC1	Non-toxic
CN1CCN(c2ccc(-c3ccc4nc(-c5ccc(C(=O)Nc6ccccc6C(F)(F)F)cc5)[nH]c4c3)cc2)CC1	Non-toxic
CN1CCN(c2ccc(-c3ccc4nc(-c5ccc(C(=O)Nc6ccc(F)cc6Br)cc5)[nH]c4c3)cc2)CC1	Non-toxic
CN1CCN(c2ccc(-c3ccc4nc(-c5ccc(C(=O)Nc6ccc(Br)cc6F)cc5)[nH]c4c3)cc2)CC1	Non-toxic
CN1CCN(c2ccc(-c3ccc4nc(-c5ccc(C(=O)Nc6cccc(C(F)(F)F)c6)cc5)[nH]c4c3)cc2)CC1	Non-toxic

Exercise: Look up Activity: `CN1CCN(c2ccc(-c3ccc4nc(-c5ccc(C(=O)Nc6ccc(Cl)cc6)cc5)[nH]c4c3)cc2)CC1`
Solution: Non-toxic

Exercise: Param item = `COc1cccc(NC(=O)c2ccc(-c3nc4ccc(-c5ccc(N6CCN(C)CC6)cc5)cc4[nH]3)cc2)c1` ; retrieve measured Activity.
Solution: Non-toxic

Exercise: Name the reported Activity value associated with the molecule `COc1ccccc1NC(=O)c1ccc(-c2nc3ccc(-c4ccc(N5CCN(C)CC5)cc4)cc3[nH]2)cc1`
Solution: Non-toxic
